assay: NCI Yeast Anticancer Drug Screen. Data for the mec2-1 strain (AID 157); conditions: S. cerevisiae mec2-1 strain, hits give high values; at 50.0 µM unless noted
The panel holds about 79,000 compounds, 15% with a hit somewhere; the sample as a whole holds those more often. The source made the active and inactive calls. Cut-off read from the data, not from the text of the source: active = growth inhibition above about 70%; inactive = the rest.
property label: growth inhibition

Answered cases to consult:
CCCCCCCCCCCCCOc1ccc(S(=O)(=O)/N=C(\N)NC(N)=NCCCCCCCCCCCC)cc1 = 12.4% (inactive)
CN(C=O)c1c(F)cc(N=Nc2ccccc2)cc1F = 1.15% (inactive)
CCOC(=O)CC(=O)Cc1ccccc1 = -16.6% (inactive)
Cc1ccc(S(=O)(=O)N2C(=O)CCC2C(=O)O)cc1 (stereo not drawn) = -5.65% (inactive)
O=C1/C(=C/c2cccc(Br)c2)Cc2ccccc21 = -7.9% (inactive)

Consider the following items and state reported growth inhibition for each.
1. O=S1(=O)OCCOS(=O)(=O)C1Cc1nc2ccccc2[nH]1
2. O=C1C2C(c3ccccc3)NC(c3ccccc3)C1C(c1ccccc1)NC2c1ccccc1 (stereo not drawn)

15.8% (inactive)
-8.5% (inactive)

Consider the following items and state reported growth inhibition for each.
1. CNC(=O)C1C(=O)NC(=O)C1=C1CCCC1 (stereo not drawn)
2. CC(C)C(=O)NCC[C@@H](CNC(=O)OC(C)(C)C)NC(=O)OC(C)(C)C
3. O=S1(=O)c2ccccc2Nc2cc3ccccc3cc21
4. Cc1ccc(C(=O)CC2=Nc3nnc(CCCCCCCc4nnc5n4C(=O)C(CC(=O)c4ccc(C)cc4)=N5)n3C2=O)cc1
5. CCCCCCCCCCCC(=O)CCCCCCCCCCCC(=O)OC
6. CC1(C)CSCC(C)(C)C(=N/N)/C1=N\N

["-1.1% (inactive)", "-3.1% (inactive)", "2.4% (inactive)", "22.4% (inactive)", "15.4% (inactive)", "22.7% (inactive)"]
